src = ChEMBL document CHEMBL4616709

System: Mus musculus
Experiment: Antinociceptive activity in ICR mouse model of chronic constriction injury-induced neuropathic pain assessed as inhibition of mechanical allodynia at 10 umol/kg, ip administered 7 days post-surgery and measured after 2 hrs post-dose by Von Frey assay relative to control
Type: functional
Value kind: inhibition in vivo at 10 µmol/kg (%)
Report only the number, with the unit % understood.

Solved cases (3 shown):
- Line notation: "O=C(O)c1cc(O)c2ccc(-c3ccc(C(F)(F)F)cc3)cc2c1"
  Units text: "%"
  inhibition in vivo at 10 µmol/kg: 59.8
- Line notation: "CCC(=O)N1CCC(c2ccc(-c3cc(C(=O)O)cc4cc(-c5ccc(C(F)(F)F)cc5)ccc34)cc2)CC1"
  Units text: "%"
  inhibition in vivo at 10 µmol/kg: 71.6
- Line notation: "NCCCNC(=O)c1ccc(-c2cc(C(=O)O)cc(-n3cc(-c4ccc(C(F)(F)F)cc4)nn3)c2)s1"
  Units text: "%"
  inhibition in vivo at 10 µmol/kg: 74

Please look at the following compound next.
Return inhibition in vivo at 10 µmol/kg (reported value) for this compound: O=C(O)c1cc(-c2ccc(C3CCNCC3)cc2)c2ccc(-c3ccc(C(F)(F)F)cc3)cc2c1
96.4
